Target sequence: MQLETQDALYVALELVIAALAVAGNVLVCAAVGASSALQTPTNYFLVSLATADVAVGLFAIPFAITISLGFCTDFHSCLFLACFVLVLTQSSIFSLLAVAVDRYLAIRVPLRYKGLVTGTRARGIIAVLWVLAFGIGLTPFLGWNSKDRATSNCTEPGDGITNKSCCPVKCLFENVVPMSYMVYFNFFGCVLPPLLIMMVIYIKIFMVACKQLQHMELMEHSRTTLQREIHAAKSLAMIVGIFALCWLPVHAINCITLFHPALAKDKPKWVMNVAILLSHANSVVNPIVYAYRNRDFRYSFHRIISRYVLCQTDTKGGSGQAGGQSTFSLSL
pKi: −log10 of the molar value.

Compound: CCn1c(=O)c2[nH]c(-c3ccc(-n4nc(C)cc4-c4ccccc4)nc3)nc2n(CC)c1=O [Compound 2]
pKi: 5.30 to 6.30
//
Compound: CCCn1c(=O)c2[nH]c(-c3ccc(-n4nc(C)cc4-c4ccccc4)nc3)nc2n(CCC)c1=O [Compound 5]
pKi: 6.30 to 7.00
//
Compound: CCCn1c(=O)c2[nH]c(-c3ccc(NN)nc3)nc2n(CCC)c1=O [Compound 1]
pKi: 6.30 to 7.00
//
Compound: CCCn1c(=O)c2[nH]c(-c3ccc(-n4nc(-c5ccccc5)cc4N)nc3)nc2n(CCC)c1=O [Compound 15]
pKi: > 7.00
//
Compound: CCCn1c(=O)c2[nH]c(-c3ccc(-n4nc(C(F)(F)F)cc4-c4ccco4)nc3)nc2n(CCC)c1=O [Compound 9]
pKi: > 7.00
//
Compound: CCCn1c(=O)c2[nH]c(-c3ccc4nncn4c3)nc2n(CCC)c1=O [Compound 14]
pKi: 6.30 to 7.00
//
Compound: CCCn1c(=O)c2[nH]c(-c3ccc(-n4nc(C(F)(F)F)cc4-c4cccs4)nc3)nc2n(CCC)c1=O [Compound 8]
pKi: 6.30 to 7.00
